# reported IC50; entries follow
tested on: HeLa; assay: Cytotoxicity against human HeLa cells assessed as growth inhibition after 48 hrs by MTT assay; type: functional, cell-based; settings: Homo sapiens, HeLa, 48 h; read-out: IC50
endpoint: IC50 (µM)

INSERT INTO results (compound, result_number) VALUES
  ('O=C(CC(c1ccc(Cl)cc1)C(C(=O)Nc1ccccn1)C(=O)Nc1ccccn1)c1ccccc1 (centres undefined)', 13.6),
  ('COc1cccc2c1C(=O)c1c(O)c3c(c(O)c1C2=O)C[C@@](O)(C(=O)CO)C[C@@H]3O[C@H]1C[C@H](N)[C@H](O)[C@H](C)O1 [DOXORUBICIN]', 0.3),
  ('O=C(CC(c1ccc(Cl)cc1)C(C(=O)Nc1ccccn1)C(=O)Nc1ccccn1)c1ccc(F)cc1 (centres undefined)', 4.1),
  ('O=C(CC(c1ccc(F)cc1)C(C(=O)Nc1ccccn1)C(=O)Nc1ccccn1)c1ccccc1 (centres undefined)', 20.8),
  ('O=C(CC(c1ccccc1)C(C(=O)Nc1ccccn1)C(=O)Nc1ccccn1)c1ccccc1 (centres undefined)', 28.1),
  ('O=C(CC(c1ccc(Cl)cc1Cl)C(C(=O)Nc1ccccn1)C(=O)Nc1ccccn1)c1ccccc1 (centres undefined)', 13.5),
  ('Cc1cc(C)c(C(CC(=O)c2ccccc2)C(C(=O)Nc2ccccn2)C(=O)Nc2ccccn2)c(C)c1 (centres undefined)', 15.1),
  ('O=C(CC(c1ccc([N+](=O)[O-])cc1)C(C(=O)Nc1ccccn1)C(=O)Nc1ccccn1)c1ccccc1 (centres undefined)', 30),
  ('O=C(CC(c1ccc(F)cc1)C(C(=O)Nc1ccccn1)C(=O)Nc1ccccn1)c1ccc(F)cc1 (centres undefined)', 25.5);
